Source of measurements: ChEMBL document CHEMBL1201862

molecules and their reported GI50
- System: UO-31
- assay_procedure: NCI tumour cell line growth inhibition, 48 h
Calls of active or inactive are those of the source. Cut-off read from the data, not from the text of the source: active = GI50 up to about 1.1 µM and inactive = higher.

[
  {
    "molecule": "O=C1NC2OCC(O)C(O1)C2O (configuration not stated)",
    "GI50": "> 100 µM (inactive)"
  },
  {
    "molecule": "COc1ccc(/N=N/C(=N/NC(=O)c2cc(Cl)ccc2C(=O)c2ccccc2)c2ccc(N(CCC#N)CCC#N)cc2C)cc1",
    "GI50": "20.3 µM (inactive)"
  },
  {
    "molecule": "C=C1C(=O)O[C@@H]2C[C@@]3(C)[C@H](O)CCC(=C)[C@@H]3C[C@H]12",
    "GI50": "10.8 µM (inactive)"
  },
  {
    "molecule": "COc1ccc(C(=O)c2cc(OC)c(OC)c(OC)c2)cc1OC",
    "GI50": "3.71 µM (inactive)"
  },
  {
    "molecule": "O=c1[nH]nc(-c2ccc([N+](=O)[O-])cc2)n1/N=C/c1ccc([N+](=O)[O-])cc1",
    "GI50": "> 100 µM (inactive)"
  },
  {
    "molecule": "COc1cccc(/C=C2\\C(=O)N(C(=O)Cc3ccccc3)N=C2C)c1",
    "GI50": "> 100 µM (inactive)"
  },
  {
    "molecule": "CCCCCCCCCCCCCCCCCC(=O)NCC(COP(=O)([O-])OCC[N+](C)(C)C)OCC (configuration not stated)",
    "GI50": "19.5 µM (inactive)"
  }
]

====

- Test system: ACHN
- assay_procedure: NCI tumour cell line growth inhibition, 48 h
The source made the active and inactive calls. No stated cut-off is given here; in the data, active = GI50 up to about 1.1 µM and inactive = higher.

[
  {
    "molecule": "Cc1ccc(NC(=O)/C(=N\\NC(N)=O)c2c(O)c3ccccc3[nH]c2=O)cc1",
    "GI50": "> 100 µM (inactive)"
  },
  {
    "molecule": "C1CN2N3CCCC23C1 (stereo unspecified)",
    "GI50": "> 100 µM (inactive)"
  },
  {
    "molecule": "CS(=O)(=O)c1n[nH]c2nc(O)nc(O)c12",
    "GI50": "> 10 µM (inactive)"
  },
  {
    "molecule": "COc1cc2c(cc1O)CC1c3c(cc(O)c(OC)c3-2)CCN1C (stereo unspecified)",
    "GI50": "> 100 µM (inactive)"
  },
  {
    "molecule": "CCC1=C(C(C)=O)[C@@H]2CCCCC(C(=O)OC)[C@@H]2C1=O (stereo partly specified)",
    "GI50": "> 100 µM (inactive)"
  },
  {
    "molecule": "COC(=O)[C@@H](NS(=O)(=O)CC12CCC(CC1)C2(C)C)C(C)(C)C",
    "GI50": "> 100 µM (inactive)"
  }
]

====

- System: MDA-MB-435
- assay_procedure: NCI tumour cell line growth inhibition, 48 h
Activity calls are given as the source filed them. No stated cut-off is given here; in the data, active = GI50 up to about 1.1 µM and inactive = higher.
measure_name: GI50

[
  {
    "molecule": "CN(C)CC1CCCC1=O (stereo not given)",
    "system_tested": "MDA-MB-435",
    "readout_value": "4.39 µM (inactive)"
  },
  {
    "molecule": "Cc1ccc(-c2cc(-c3ccc(Cl)cc3)nc(/N=C3\\C(=O)N(CN4CCOCC4)c4ccc(Cl)cc43)n2)cc1",
    "system_tested": "MDA-MB-435",
    "readout_value": "24.4 µM (inactive)"
  },
  {
    "molecule": "COc1ccc(C(C2C(=O)N(C)C(=O)N(C)C2=O)C(F)(F)C(=O)N(C)C)cc1 (stereo not given)",
    "system_tested": "MDA-MB-435",
    "readout_value": "> 100 µM (inactive)"
  },
  {
    "molecule": "CC(C)Oc1cccc(N2C(n3ccnc3)=Nc3ccncc3S2(=O)=O)c1",
    "system_tested": "MDA-MB-435",
    "readout_value": "11.9 µM (inactive)"
  },
  {
    "molecule": "CCOc1cc2c(cc1O)CC[C@@H]1[C@@H]2CC[C@]2(C)C(N)CC[C@@H]12 (stereo not given in full)",
    "system_tested": "MDA-MB-435",
    "readout_value": "1.63 µM (inactive)"
  }
]

====

- System: CAKI-1
- assay_procedure: NCI tumour cell line growth inhibition, 48 h
Active and inactive are the calls of the source. Cut-off read from the data, not from the text of the source: active = GI50 up to about 1.1 µM and inactive = higher.

[
  {
    "compound": "CC1=NN2C(=N)/C(=C/c3ccc(F)cc3)C(=O)N=C2S1",
    "system_tested": "CAKI-1",
    "GI50": "> 100 µM (inactive)"
  },
  {
    "compound": "O=C(CC(C(=O)c1cccs1)c1ccc2c(c1)OCO2)c1ccccc1 (centres undefined)",
    "system_tested": "CAKI-1",
    "GI50": "> 100 µM (inactive)"
  },
  {
    "compound": "COC(=O)c1ccccc1/C=C1\\Cc2ccc3c(c2C1=O)CCCC3",
    "system_tested": "CAKI-1",
    "GI50": "> 100 µM (inactive)"
  },
  {
    "compound": "Cc1cc(NS(=O)(=O)c2ccc(Nc3c4ccccc4nc4c(C(=O)N5CCN(CCOS(C)(=O)=O)CC5)cccc34)cc2)no1",
    "system_tested": "CAKI-1",
    "GI50": "> 100 µM (inactive)"
  },
  {
    "compound": "CN(C)C(c1ccccc1)C1COC2Cc3ccccc3C1O2 (centres undefined)",
    "system_tested": "CAKI-1",
    "GI50": "> 100 µM (inactive)"
  },
  {
    "compound": "Nc1nc(Cl)c(C=O)c(NCC2(CO)CC(CCc3ccccc3)C2)n1 (centres undefined)",
    "system_tested": "CAKI-1",
    "GI50": "1.55 µM (inactive)"
  },
  {
    "compound": "C[C@H](CCC1SC1(C)C)C1CCC2(C)C3=C(CC[C@]12C)[C@@]1(C)CC[C@H](O)C(C)(C)C1CC3 (some centres undefined)",
    "system_tested": "CAKI-1",
    "GI50": "> 100 µM (inactive)"
  },
  {
    "compound": "CCCCCCc1cc2cc(C(=O)Nc3nc(C45CC6CC(CC(C6)C4)C5)cs3)c(=O)oc2cc1O",
    "system_tested": "CAKI-1",
    "GI50": "8.81 µM (inactive)"
  },
  {
    "compound": "Cc1ccc(N2Cc3c(ccc4ccccc34)OP2(=O)Oc2ccc(Cl)c(C)c2)cc1 (centres undefined)",
    "system_tested": "CAKI-1",
    "GI50": "> 100 µM (inactive)"
  }
]

====

- Tested on: SK-MEL-28
- assay_procedure: NCI tumour cell line growth inhibition, 48 h
The source made the active and inactive calls. Cut-off read from the data, not from the text of the source: active = GI50 up to about 1.1 µM and inactive = higher.
Outcome codes: active, inactive

[
  {
    "compound": "CC1=NN2C(=N)/C(=C/c3ccc(F)cc3)C(=O)N=C2S1",
    "assigned_class": "inactive"
  },
  {
    "compound": "Oc1cc2c3c(c1)CCCN3CCC2",
    "assigned_class": "inactive"
  },
  {
    "compound": "O=C1/C(=C/c2ccc(Oc3ccccc3)cc2)N=C(c2ccccc2)N1c1ccc(S(=O)(=O)Nc2nccs2)cc1",
    "assigned_class": "inactive"
  },
  {
    "compound": "COC(=O)C(C)Oc1ccc(O)cc1 (configuration not stated)",
    "assigned_class": "inactive"
  },
  {
    "compound": "CSC(=N)N1N=C2/C(=C/c3ccccc3)CCC[C@H]2[C@H]1c1ccccc1",
    "assigned_class": "inactive"
  },
  {
    "compound": "Cc1nc2n(c1/C=C1/C(=O)Nc3cccc(Cl)c31)CCS2",
    "assigned_class": "inactive"
  },
  {
    "compound": "CC[C@@]12C=CC(=S)N(CCSc3ccccc3)[C@@H]1c1c(n(S(=O)(=O)c3ccc(OC)cc3)c3ccccc13)CC2",
    "assigned_class": "inactive"
  },
  {
    "compound": "C=C1COC(/C=C(\\C)CC/C=C(\\C)CCl)C1 (configuration not stated)",
    "assigned_class": "inactive"
  },
  {
    "compound": "COc1cc([C@@H]2c3cc4c(cc3[C@@H](OC(=O)c3ccccc3)C3COC(=O)[C@@H]32)OCO4)cc(OC)c1O (some centres not stated)",
    "assigned_class": "active"
  },
  {
    "compound": "C[C@@H](C[C@H]1OC(C)(C)O[C@@H]1C(C)(C)O)[C@H]1CC=C2[C@]3(C)[C@H](O)C[C@H]4C(C)(C)[C@H](O)CC[C@]4(C)[C@H]3CC[C@]21C",
    "assigned_class": "inactive"
  },
  {
    "compound": "Fc1ccc(NC(=S)SCc2ccc3c(c2)OCO3)cc1F",
    "assigned_class": "inactive"
  },
  {
    "compound": "O=c1ccn(CC2(CO)CCC2)c(=O)[nH]1",
    "assigned_class": "inactive"
  },
  {
    "compound": "O=CCOCc1cc2c(cc1Br)OCO2",
    "assigned_class": "inactive"
  },
  {
    "compound": "CCOC(=O)c1cccnc1C(OC(C)=O)OC(C)=O",
    "assigned_class": "inactive"
  },
  {
    "compound": "O=C1NC2(CCCCC2)C2CCCCC(O)C12 (configuration not stated)",
    "assigned_class": "inactive"
  },
  {
    "compound": "Cc1nc2ccc(S(=O)(=O)Nc3nccs3)cc2c(=O)n1NS(=O)(=O)c1nccs1",
    "assigned_class": "inactive"
  },
  {
    "compound": "COC(=O)CSc1nnc(-c2ccccc2)[nH]1",
    "assigned_class": "inactive"
  },
  {
    "compound": "O=C(O)CNS(=O)(=O)c1ccc(NC(=O)c2ccc(F)cc2)cc1",
    "assigned_class": "inactive"
  },
  {
    "compound": "O=C(O)C1(Cc2ccc3c(c2)CCC3)Cc2cc3c(cc2C1)CCC3",
    "assigned_class": "inactive"
  },
  {
    "compound": "COc1cc(CO)c(CC(=O)NCCCc2ccccc2)cc1OC",
    "assigned_class": "inactive"
  },
  {
    "compound": "CCOC(=O)C(NC(=O)NCc1ccc(F)cc1)C(F)(F)F (configuration not stated)",
    "assigned_class": "inactive"
  },
  {
    "compound": "O=C1C=Cc2noc3cccc1c23",
    "assigned_class": "inactive"
  }
]
